Tested on: PXR
experimentSummary: RNA induction in HepaRG: PXR RNA (RT-qPCR)
Assay type: cell-based, human
studyConditions: differentiated HepaRG, 24 h; FC relative to DMSO
measurementName: PXR RNA expression

[[record]]
molecule = "Cc1sc2c(c1C)C(c1ccc(Cl)cc1)=N[C@@H](CC(=O)OC(C)(C)C)c1nnc(C)n1-2 [JQ1, (+)-JQ1]"
measurementname = "PXR RNA expression"
observedvalue = "greatly reduced PXR RNA"

[[record]]
molecule = "Cc1sc2c(c1C)C(c1ccc(Cl)cc1)=N[C@@H](CC(N)=O)c1nnc(C)n1-2"
measurementname = "PXR RNA expression"
observedvalue = "greatly reduced PXR RNA"

[[record]]
molecule = "Cc1sc2c(c1C)C(c1ccc(Cl)cc1)=N[C@@H](CC(=O)Nc1ccc(O)cc1)c1nnc(C)n1-2"
measurementname = "PXR RNA expression"
observedvalue = "greatly reduced PXR RNA"


From: paper PMC10899790
